Recorded measurements of viability, T/C, one per entry
- System: 941728-121-R-J1-PDC complex spheroid viability
- assay-details: Anticancer human tumor 941728-121-R-J1-PDC patient-derived lung adenocarcinoma cell line growth inhibition [RAS]
- experimental-conditions: second compound 0.03 µM; first compound 0.0316 µM; hits give low values
Field: numeric (%). Do not append units.

Consider the worked cases shown below.
Readout viability, T/C for CC(C)n1nc(-c2ccc3oc(N)nc3c2)c2c(N)ncnc21 + CCn1c(-c2cc(N3CCN(C)CC3)cnc2C(C)OC)c2c3cc(ccc31)-c1csc(n1)CC(NC(=O)C1CC1C)C(=O)N1CCCC(N1)C(=O)OCC(C)(C)C2 , test system 941728-121-R-J1-PDC complex spheroid viability, was 6.44

Tested system 941728-121-R-J1-PDC complex spheroid viability; viability, T/C recorded for O=C(c1ccc(F)c(F)c1Nc1ccc(I)cc1F)N1CC(O)([C@@H]2CCCCN2)C1 + CCn1c(-c2cccnc2C(C)OC)c2c3cc(ccc31)N1CCOC(CC(NC(=O)C(C(C)C)N(C)C(=O)C3(F)CCN(C(=O)C#CC(C)(C)N(C)C)CC3)C(=O)N3CCCC(N3)C(=O)OCC(C)(C)C2)C1 was 18.8

So the reported viability, T/C for C[C@@H](NC(=O)c1ncnc(N)c1Cl)c1ncc(C(=O)Nc2cc(C(F)(F)F)c(Cl)cn2)s1 + CCn1c(-c2cccnc2C(C)OC)c2c3cc(ccc31)N1CCOC(CC(NC(=O)C(C(C)C)N(C)C(=O)C3(F)CCN(C(=O)C#CC(C)(C)N(C)C)CC3)C(=O)N3CCCC(N3)C(=O)OCC(C)(C)C2)C1 , on 941728-121-R-J1-PDC complex spheroid viability, turned out to be 23.9

New cases:
# lookup: C[C@@H](NC(=O)c1ncnc(N)c1Cl)c1ncc(C(=O)Nc2cc(C(F)(F)F)c(Cl)cn2)s1 + CCn1c(-c2cc(N3CCN(C)CC3)cnc2C(C)OC)c2c3cc(ccc31)-c1csc(n1)CC(NC(=O)C1CC1C)C(=O)N1CCCC(N1)C(=O)OCC(C)(C)C2 on 941728-121-R-J1-PDC complex spheroid viability, viability, T/C = 14.1

---

- Tested on: 941728-121-R-J1-PDC complex spheroid viability
- assay-details: Anticancer human tumor 941728-121-R-J1-PDC cell line growth inhibition [RAS];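 further: spheroids exposed to compounds for 7 days before readout; 100% = DMSO vehicle control viability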
- experimental-conditions: second compound 0.00316 µM; first compound 0.1 µM; hits give low values
readout-name: viability, T/C (%)
Give the value, in units of %, as a plain number.

# molecule Cc1nc(N2CCC3(CC2)COC(C)C3N)c(CO)nc1Sc1ccnc(N)c1Cl (stereo not drawn) + C=CC(=O)N1CCN(c2nc(OCC3CCCN3C)nc3c(F)c(-c4nc(N)cc(C)c4C(F)(F)F)c(Cl)cc23)C(C)C1 ; its viability, T/C = 17.5

Item: Nc1ccn(C2OC(CO)C(O)C2(F)F)c(=O)n1 (stereo not drawn) + C=CC(=O)N1CCN(c2nc(OCC3CCCN3C)nc3c(F)c(-c4nc(N)cc(C)c4C(F)(F)F)c(Cl)cc23)C(C)C1 | viability, T/C: 14

The value of viability, T/C measured for the molecule CC(Nc1ccc2c(c1)OCCn1cc(N3C(=O)OCC3C(F)F)nc1-2)C(N)=O (stereo not drawn) + C=CC(=O)N1CCN(c2nc(OCC3CCCN3C)nc3c(F)c(-c4nc(N)cc(C)c4C(F)(F)F)c(Cl)cc23)C(C)C1 turned out to be 15.2
